# measured target: CYP2C9 (Homo sapiens (Human))
# Sequence (P11712 whole entry): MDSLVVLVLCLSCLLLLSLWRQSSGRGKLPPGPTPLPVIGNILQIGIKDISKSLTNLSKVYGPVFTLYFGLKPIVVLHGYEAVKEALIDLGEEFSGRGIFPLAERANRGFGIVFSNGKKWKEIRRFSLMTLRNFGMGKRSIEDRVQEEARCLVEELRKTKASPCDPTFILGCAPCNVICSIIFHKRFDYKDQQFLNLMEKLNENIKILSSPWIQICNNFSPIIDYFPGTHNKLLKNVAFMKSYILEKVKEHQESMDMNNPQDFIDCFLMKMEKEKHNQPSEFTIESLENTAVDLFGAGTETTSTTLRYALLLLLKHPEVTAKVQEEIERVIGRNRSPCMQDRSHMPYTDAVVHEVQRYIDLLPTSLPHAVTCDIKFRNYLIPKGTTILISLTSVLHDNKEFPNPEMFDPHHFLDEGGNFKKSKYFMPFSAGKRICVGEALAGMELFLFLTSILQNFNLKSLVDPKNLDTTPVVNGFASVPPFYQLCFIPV
readout type: pIC50
By convention, pIC50 is the negative base-10 log of a molar concentration.

Answered examples (5):
• O=C(c1noc(-c2cc(F)c(F)c(O)c2F)n1)N1CCC(c2ccccc2)C1 (centres unmarked) = 5.89
• CCCC1CCN(C(=O)c2noc(-c3cc(F)c(F)c(O)c3F)n2)C1 (centres unmarked) = 5.59
• CN(C(=O)c1cc(-c2ccc(F)c(O)c2)on1)c1ccnn1C1CCCCC1 = 5.08
• COc1ccc(C(C)N(C)C(=O)c2noc(-c3cc(F)c(F)c(O)c3F)n2)cc1 (centres unmarked) = 5.52
• C[C@@H]1CN(C(=O)c2noc(-c3cc(F)c(F)c(O)c3F)n2)C[C@H](C)O1 = 4.81

Lookup: Reported pIC50, compound `O=C(c1noc(-c2cc(F)c(F)c(O)c2F)n1)N1CCO[C@H]2CCC[C@@H]21` : ____
Found: 5.01

Lookup: Reported pIC50, compound O=C(c1noc(-c2cc(F)c(F)c(O)c2F)n1)N1CC2CC2(c2ccccc2)C1 (centres unmarked) : ____
Found: 6.52

Lookup: Reported pIC50, compound `O=C(c1noc(-c2cc(F)c(F)c(O)c2F)n1)N1CC(c2ccccc2)C1` : ____
Found: 5.41

Lookup: Reported pIC50, compound `O=C(c1ccc(-c2cc(F)c(F)c(O)c2F)s1)N1CC[C@H](c2ccccc2)C1` : ____
Found: 6.70

Lookup: Reported pIC50, compound `N#Cc1cccc2c1CCN(C(=O)c1noc(-c3c(F)c(O)c(F)c(F)c3Br)n1)C2` : ____
Found: 5.41
